- test: HPLC on immobilized artificial membrane column (HPLCIAM)
- Assay type: physicochemical
- assay context: Table S9, external group

{"columns": ["compound", "log kIAM"],
 "data": [
  ["CN1CCC[C@@H]1Cc1c[nH]c2ccc(CCS(=O)(=O)c3ccccc3)cc12", 0.55],
  ["C=C[C@H]1C[N@@]2CC[C@H]1C[C@H]2[C@H](O)c1ccnc2ccc(OC)cc12", 0.49],
  ["CCC[C@@H]1C[C@@H](C(=O)N[C@@H]([C@H]2O[C@H](SC)[C@H](O)[C@@H](O)[C@H]2O)[C@@H](C)O)N(C)C1", 0.59],
  ["NS(=O)(=O)c1cc2c(cc1Cl)NCNS2(=O)=O [hydrochlorotiazide]", 0.30]
]}
